# Test system: HS 578T breast
# method-notes: NCI-60 one-dose screen, 48 h (100 = growth as untreated, 0 = no growth, -100 = all killed)
# test-context: 10 µM unless noted
Compounds without any hit were thinned out: in the full panel of roughly 83,000, 20% have a hit.
So I've got a bunch of molecules here, and I need their growth values.
Supply the numeric figure in %, leaving out any unit text.

Endpoint output: growth of Cc1ccc(S(=O)(=O)c2nc(-c3ccccc3)oc2SCC(N)=O)cc1 . Value?
101

Endpoint output: growth of CCCCCc1ccc(S(=O)(=O)Nc2ccc3nc(N)oc3c2)cc1 . Value?
73.9

Record request: growth value, item COc1cc(C[C@H]2COc3cc(O)cc(O)c3C2=O)ccc1O
13.7

Query (molecule): Clc1cccc(C2Cc3cnccc3-c3[nH]c4ccncc4c32)c1 (stereo unspecified) ; field requested: growth
85

What value of measured growth is listed for Cc1nn(-c2ccc([N+](=O)[O-])cc2)c2ncnc(N/N=C/c3ccccc3O)c12 ?
44

Query: growth; subject: O=C(Nc1ccc(Nc2ccncc2)cc1)c1ccc(Nc2ccnc3ccc([N+](=O)[O-])cc23)cc1
110

Return reported growth; argument: Cc1c(C(C)(C)O)cn2ncnc(Oc3ccc(NC(=O)Nc4ccc(Cl)c(C(F)(F)F)c4)c(F)c3)c12
80.9

Endpoint output: growth of O=C(NCCCCCCNC(=O)OCc1ccc2c(Cl)cc(Cl)c(O)c2n1)OCc1ccc2c(Cl)cc(Cl)c(O)c2n1 . Value?
-15.1

Please report the recorded growth for COc1ccc(C2C3=C(COC3=O)N(CCO)c3cc4c(cc32)OCO4)cc1OC (stereo unspecified) .
92.4

Quick check: growth of COc1nc(/C=C\Nc2ccc3c(c2)OCCOCCOCCOCCO3)nc(OC)n1 ?
89.9

Looking for the measured growth of CN(C)c1ccc(CNCCO)cc1 , can you help?
96

Field request: growth | item: c1ccc(Nc2nc3c(s2)CCc2c[nH]cc2-3)nc1
96

What value of measured growth is listed for CCCCNC(=O)c1ccc2c(c1)nc(-c1ccccc1)n2C1CCCCC1 ?
110

Which growth value is on record for O=S(=O)(Nc1cc(Sc2nc3ccccc3s2)c(O)c2ccccc12)c1ccc2ccccc2c1 ?
101

Sample c1cc(OCCN2CCCCCC2)ccc1CNc1ccc2nc(CCC3CCCCC3)[nH]c2c1 — what was its growth?
65.2

Report growth for CS(=O)/C(C#N)=C\C=C\c1cccc(Cl)c1 (stereo unspecified) please.
43.2

State the recorded growth for this entry: c1cc(OCCCCCOc2cccc(-c3nc4ccccc4[nH]3)c2)cc(-c2nc3ccccc3[nH]2)c1
25.3

Bench note: what growth did COc1cccc(CNc2c3ccccc3nc3ccccc23)c1OC show?
64.3

Endpoint output: growth of Cc1ccc(C)c2c1sc1nc(N3CCOCC3)c(C#N)c(=O)n12 . Value?
76.4

Field request: growth | item: CC(=O)c1ccc(-n2cc(CN3CCN(c4cc5c(cc4F)c(=O)c(C(=O)O)cn5C4CC4)CC3)nn2)cc1
80.6

// lookup growth for COc1ccc2[nH]cc(-c3nonc3-c3c[nH]c4ccc(Br)cc34)c2c1
55.1

---

# Test system: MCF7 breast
# method-notes: NCI-60 one-dose screen, 48 h
# test-context: 10 µM unless noted
The panel holds about 83,000 compounds, 20% with a hit somewhere; the sample as a whole holds those more often. Calls of active or inactive are those of the source. The calls were made as follows: active = growth percent below 10; inactive = the rest.
Output constraint: value belongs to active, inactive

Which outcome did this test record for the compound CN(C)c1ccc(C(=S)c2ccc(N(C)C)cc2)cc1 ?
inactive

Which outcome was assigned to O=C(NN1C(=O)CSC1c1cccc([N+](=O)[O-])c1)c1ccc(NC(=O)c2ccccn2)cc1 (stereo not given) in this test?
inactive

Any idea what this test logged for CN(C)CCCn1c2c(c3ccncc3c1=O)C(=O)c1ccccc1-2 ?
active

What outcome does the record of this test show for C#COc1cccc(Nc2ncnc3cc(NC(=O)[C@H](C)Cl)ccc23)c1 ?
inactive

Look up the recorded call for CC1(C)N=C(N)N=C(N)N1c1cc(Cl)ccc1Cl in this test.
inactive

What did the test return for CCOC(=O)c1c(C)nc2ccccc2c1/C=C/c1ccc(F)cc1 ?
inactive

Please share the test call associated with CCOC(=O)c1nnn(Cc2cc(=O)oc3ccc(O)cc23)c1C .
inactive

Which outcome was assigned to O=C(Nc1nc(Cl)nc(Nc2ccc(N3CCOCC3=O)cc2)n1)c1ccc(Cl)s1 in this test?
inactive

Called result for C=C1C(=O)O[C@H]2[C@H]1CC/C(COC(=O)NCc1ccc(Cn3c(=O)sn(-c4ccc(I)cc4)c3=O)cc1)=C\CC[C@@]1(C)O[C@@H]21
inactive

Given O=C(NC1CCC(Br)CC1)C1CCCC(S(=O)(=O)NC2CCCCC2)C1 (stereo not given) , state the outcome it received in this test.
active

---

# System: IGROV1 ovarian
# method-notes: NCI-60 one-dose screen, 48 h (100 = growth as untreated, 0 = no growth, -100 = all killed)
# test-context: 10 µM unless noted
The panel holds about 83,000 compounds, 20% with a hit somewhere; the sample as a whole holds those more often.
Class met: growth at least 30%. Class not met: growth below 30%.

Can CSc1nc2ccc(C)cc2cc1/C=C1/C=C(c2ccccc2)NC1=O be said to have growth at or above 30%?
not met

Confirm if growth reported for the compound COc1ccc(-c2nc(SCC(=O)Nc3nc4ccc(C)cc4s3)[nH]c(=O)c2C#N)cc1OC is 30% or above.
met

Reported growth reaches at least 30% for O=C1c2cccnc2C(=O)c2c1c(C(=O)OCCc1ccccn1)c1ccccn21 ?
not met

Can COc1ccc2c(c1)c(-c1nc(-c3ccc4ccccc4c3)cs1)cn2C be said to have growth at or above 30%?
met

State whether the measured growth reaches 30%, counting equality as reaching it, for CC12OC(CC(O)C1O)n1c3ccccc3c3c4c(c5c6ccccc6n2c5c31)C(=O)N(CCN1CCCC1)C4=O (centres undefined)
not met

Test whether the compound N#Cc1ccc(/C=C/c2cn(-c3ccccc3)nc2-c2cccc([N+](=O)[O-])c2)cc1 records growth of 30% or higher.
met

Could you please find out whether CCN(CC)CCn1c2ccc(OC)cc2c2sc3cc(O)ccc3c(=O)c21 has growth that meets 30% or exceeds it?
not met

Record C#CCOc1cccc(Nc2ncnc3cc(NC(=O)CCl)ccc23)c1 ; criterion: growth no lower than 30%. Met?
not met

---

# System: OVCAR-5 ovarian
# method-notes: NCI-60 one-dose screen, 48 h (100 = growth as untreated, 0 = no growth, -100 = all killed)
# test-context: 10 µM unless noted
About 83,000 compounds went through this panel and 20% of them were active in at least one assay; those are over-represented in the sample as a whole.
Could you please report measured growth for the items listed next?
Record the value in %, omitting the unit from your answer.

Value lookup for growth; key = Clc1cccc(C2Cc3cnccc3-c3[nH]c4ccncc4c32)c1 (configuration not stated)
86.4

What measured growth goes with CS(=O)(=O)Nc1cc(-c2ccc3ncnc(Nc4ccc(OCc5ccccn5)c(Cl)c4)c3c2)cnc1Cl ?
12.5

Recorded growth of Cn1c(=O)c2[nH]c(SC/C(=N/O)c3ccc(Br)cc3)nc2n(C)c1=O , please.
54.8

Given the entry CCN(CC)CCOc1ccc2ccc(=O)oc2c1 , report its measured growth.
96

Requested field: growth. Item: CN1CC(c2ccc(Br)cc2)C(C(=O)c2ccc(Br)cc2)C12C(=O)Nc1ccccc12 (configuration not stated)
82.1

Look at this compound and give its reported growth. C=C(c1ccc(C(=O)O)c(F)c1)c1cc2c(cc1C)C(C)(C)CCC2(C)C
101

growth lookup needed for COc1ccc(/C=C2\CN(C(=O)C(Cl)Cl)C/C(=C\c3ccc(OC)c(OC)c3)C2=O)cc1OC , thanks.
10.6

# growth lookup, item Cc1cc(O)c(=O)cc2c1C[C@H]1CC(C)(C)/C=C/C[C@]3(C)Oc4cc(=O)c(O)cc(C)c4C[C@H]3C[C@H](O)[C@@]1(C)O2
18.9

Any idea what its growth is? The compound is CCOC(=O)c1cn2ncnc(Oc3ccc(NC(=O)NC4CC4)c(Cl)c3)c2c1C
108

Which measured growth value corresponds to COCCn1cc(-c2nc(-c3cc4cccnc4n3C)cs2)c2ccccc21 ?
49

Quick one: growth for CC/C(=C(\c1ccc(Cl)cc1)c1ccc(OCCN2CCCCC2)cc1)c1ccc(O)cc1 ?
70.4

Report growth for CC(C)(C)c1ccc(C(=O)N/N=C/c2ccc(O)cc2O)cc1 please.
34.4

Quick one: growth for Cc1c(O)cc(-c2cnc(N/N=C/c3ccccc3)s2)c(O)c1C ?
110

Reported growth, compound COCCOC(C)C(/C=N/NC(N)=S)=N/NC(N)=S (configuration not stated) : ____
97.7

# get_value(readout='growth', item= C=C1C(=O)O[C@H]2[C@H]1CC/C(COC(=O)NCc1ccc(Cn3c(=O)sn(-c4ccccc4)c3=O)cc1)=C\CC[C@@]1(C)O[C@@H]21 )
68.3

// returns reported growth for input CCN(CC)C(=O)C1=C(C)NC(=O)NC1c1ccc2c(c1)OCO2 (configuration not stated)
105

Give its growth value. Item: CCOC(=O)NCCCC(=O)NCCc1ccccc1
118

Given the entry S=c1ccnc[nH]1 , report its measured growth.
101

Value lookup for growth; key = CN(C)c1ccc(C(=S)c2ccc(N(C)C)cc2)cc1
94.8

Given the entry CCN1CCN(CCNc2nccc(-c3c(-c4ccc(F)c(O)c4)nc4occn34)n2)S1(=O)=O , report its measured growth.
102

Item under review: CN(C)CCCC1(c2ccc(F)cc2)OCc2cc(-c3csc4ccccc34)ccc21 (configuration not stated) . Reported growth?
37

// query growth value for entry CCOC(=O)C1=C(CCl)N(C)C(=O)NC1c1ccc2c(c1)OCO2 (configuration not stated)
76.9

Need growth, item Cc1c(C(C)(C)O)cn2ncnc(Oc3ccc(NC(=O)Nc4ccc(Cl)c(C(F)(F)F)c4)c(F)c3)c12
134

Field request: growth | item: CCN(CC)CCOc1ccc(/C(=C(\C)Cc2ccc(OC)cc2)c2ccc(OC(=O)NCc3ccccc3)cc2)cc1
81.9

Any idea what growth was measured for N#C/C(=C\c1ccc(-c2cccc(Cl)c2)o1)C(=O)Nc1ncc(Cc2ccc(Cl)cc2)s1 ?
47.1

Recorded growth for CCOc1ccc(/C=C/C(=O)c2cccc(OCCCOc3cccc(C(=O)/C=C/c4ccc(OCC)cc4)c3)c2)cc1 , please?
107

Would you mind telling me what growth value was observed for COc1cccc(CNc2c3ccccc3nc3ccccc23)c1OC ?
43

Reported growth, compound Cc1cccc(N2C(=O)/C(=C/C(Cl)=C/c3ccc([N+](=O)[O-])cc3)SC2=S)c1C : ____
22.8

Item COc1ccc(Nc2ncc(C#N)c(NCCCNC(=O)C3CCC3)n2)cc1 has what recorded growth?
79.6

What does the record list as growth for COC(=O)[C@]1(C)CCC[C@]2(C)[C@H]3C[C@@H]4[C@H]5[C@@H]6CC/C(=N\OCC/C(N)=N/O)[C@H]5[C@@]3(CC[C@H]21)CC4(C(C)C)O6 ?
93.3

What value of measured growth is listed for CC/C(=C(/c1ccc(O)cc1)c1ccc(OCCN2CCCCC2)cc1)c1ccc(OC)cc1 ?
90.9

What value of growth has been reported for the following compound? CCOC(=O)c1c(C)nc2ccccc2c1/C=C/c1ccc(F)cc1
93.1

Look up growth: COC1C(O)CC(OC2CC(OC3CC(O[C@@H]4C(=O)c5c(cc6cc(OC7CC(OC8CC(O)C(O)C(C)O8)C(O)C(C)O7)c(C)c(O)c6c5O)CC4[C@H](OC)[C@@H](O)C(C)=O)OC(C)C3O)OC(C)C2O)OC1C (some centres not stated)
12

I would be grateful if you could share the reported growth for NS(=O)(=O)c1ccc(C(=O)NN2C(=O)c3ccccc3C2=O)cc1 .
110

Any idea what growth was measured for c1ccc(-c2nc3ccccc3[nH]2)c(OCCCCCOc2ccccc2-c2nc3ccccc3[nH]2)c1 ?
92.2

Could you share which growth value was measured for CCCCC#Cc1c(I)n(C2OC(CO[Si](C)(C)C(C)(C)C)C3OC(C)(C)OC32)c(=O)n(C(=O)c2ccccc2)c1=O (configuration not stated) ?
87.2

Need growth of COCCn1cc(-c2csc(-c3c[nH]c4ccc(F)cc34)n2)c2cccnc21 , thanks.
60.9
